Test system: anti-GNA33 mAb 25
Assay: Peptide binding assay with cellulose-bound spot-synthesised peptides
Design: species or system mouse
Conditions: alanine substitution of PorA loop 4 VR type P1.2-2 10-mer
Ends that are not written are not given here.
property-name: Relative Binding (of anti-GNA33 mAb 25)

substance	property-name	recorded-value
PAH FVQ ATP Q (Ac-PAHFVQATPQ)	Relative Binding (of anti-GNA33 mAb 25)	0
PAK FVQ QTP A (PAHFVQQTPA)	Relative Binding (of anti-GNA33 mAb 25)	2
PAH FVQ QTA Q (Ac-PAHFVQQTAQ)	Relative Binding (of anti-GNA33 mAb 25)	0
PAH FVQ QAP Q (Ac-PAHFVQQAPQ)	Relative Binding (of anti-GNA33 mAb 25)	0
PAH FAQ QTP Q (Ac-PAHFAQQTPQ)	Relative Binding (of anti-GNA33 mAb 25)	4
PAA FVQ QTP Q (Ac-PAAFVQQTPQ)	Relative Binding (of anti-GNA33 mAb 25)	8
PAH FVA QTP Q (Ac-PAHFVAQTPQ)	Relative Binding (of anti-GNA33 mAb 25)	2
PAH AVQ QTP Q (Ac-PAHAVQQTPQ)	Relative Binding (of anti-GNA33 mAb 25)	1
PGH FVQ QTP Q (Ac-PGHFVQQTPQ)	Relative Binding (of anti-GNA33 mAb 25)	8
